# System: MCF10A
# MEASUREMENT DESCRIPTION: IC50 experiment (CellTiter-GLO), MCF10A
# Type: cell-based
# CONDITION: Homo sapiens, MCF-10A; 48 h, 1% DMSO; read-out: IC50 against MCF10A
pIC50: −log10 of the molar value.
MEASUREMENT TYPE: pIC50

compound="O=C1C2O[C@@H]2C[C@H]2C=C[C@@H]3CC4O[C@H]4C(=O)[C@H]3[C@H]12 (stereo partly shown) [Compound 32]" number=2.51

###

Here, each record is paired with measured viability at 1000 µM data.
# Tested on: MDA-MB-231-LM24 (metastatic breast)
# MEASUREMENT DESCRIPTION: Cell viability at 1 mM (CellTiter-GLO), MDA-MB-231-LM24
# Format: cell-based
# CONDITION: Homo sapiens; 1.0 mM in DMSO, 48 h, MDA-MB-231-LM24; read-out: Percent Cell Viability of Treated Cell Lines at 1.0 mM, MDA-MB-231-LM24
MEASUREMENT TYPE: viability at 1000 µM (%)

compound="O=C1C=CC[C@@H]2[C@@H]1[C@@H]1C(=O)C=CC[C@H]1C1O[C@H]12 (stereo partly shown)" measurement_type="viability at 1000 µM" number=3
compound=CC1=CC[C@H]2C(C)=C[C@@H]3CC=CC(=O)[C@@]3(C)[C@@H]2C1=O measurement_type="viability at 1000 µM" number=0
compound=C[C@@]12C=CC(=O)C[C@H]1C(=O)C=CC2 measurement_type="viability at 1000 µM" number=26
compound=O=C1C=CC[C@H]2C=C[C@@H]3CC=CC(=O)[C@H]3[C@H]12 measurement_type="viability at 1000 µM" number=2
compound=CC1=CC[C@H]2C=C[C@@H]3CC=C(C)C(=O)[C@H]3[C@@H]2C1=O measurement_type="viability at 1000 µM" number=67
compound=O=C1C=CC[C@H]2CC=C[C@@H]3CC=CC(=O)[C@H]3[C@H]12 measurement_type="viability at 1000 µM" number=1
compound="CC1=CC[C@H]2C(C)=CCC3(CCC=CC3=O)[C@@H]2C1=O (stereo partly shown)" measurement_type="viability at 1000 µM" number=0
compound=CC1=CC[C@@H]2C(C)=C[C@@]3(C)CC=CC(=O)[C@@H]3[C@H]2C1=O measurement_type="viability at 1000 µM" number=10
compound="O=C1C2O[C@@H]2C[C@H]2C=C[C@@H]3CC4O[C@H]4C(=O)[C@H]3[C@H]12 (stereo partly shown)" measurement_type="viability at 1000 µM" number=0
compound=CC1=CC(=O)[C@@H]2[C@H]3C(=O)C=C(C)C[C@@H]3C=C[C@H]2C1 measurement_type="viability at 1000 µM" number=54
compound=C[C@]12CC(=O)C=C[C@@H]1CC=CC2=O measurement_type="viability at 1000 µM" number=16
compound=CC1=C[C@@H]2[C@H](C(=O)CCC2(C)C)[C@H]2C(=O)[C@@H](C)CC[C@H]12 measurement_type="viability at 1000 µM" number=55
compound=O=C1CCC[C@H]2CC[C@@H]3CCCC(=O)[C@H]3[C@H]12 measurement_type="viability at 1000 µM" number=60

###

# System: HT29 (colon)
# MEASUREMENT DESCRIPTION: Cell viability at 1 mM (CellTiter-GLO), HT29
# Type: cell-based
# CONDITION: Homo sapiens, HT-29; 1.0 mM in DMSO, 48 h, HT29; read-out: Percent Cell Viability of Treated Cell Lines at 1.0 mM, HT29
Here, each record is paired with measured viability at 1000 µM data.
MEASUREMENT TYPE: viability at 1000 µM (%)

molecule="CC1=CC(=O)[C@@H]2[C@H]3C(=O)C=C(C)C[C@@H]3C=C[C@H]2C1 [Compound 15]" number=66
molecule="CC1=CC[C@H]2C(C)=C[C@@H]3CC=CC(=O)[C@@]3(C)[C@@H]2C1=O [Compound 19]" number=1
molecule="C[C@@]12C=CC(=O)C[C@H]1C(=O)C=CC2 [Compound 29]" number=8
molecule="C[C@]12CC(=O)C=C[C@@H]1CC=CC2=O [Compound 28]" number=0
